Source of measurements: paper PMC9457736

- ASSAY SYSTEM: recombinant HIV-1 protease (wild type) (Human immunodeficiency virus type 1 group M subtype B)
- Construct: 8 μL of recombinant HIV-1 protease (wild type); purchased AnaSpec Inc
- ASSAY PROTOCOL: FRET assay of HIV-1 protease inhibition
- Assay type: biochemical
- EXPERIMENTAL SETUP: n = 3
Mark Yes for IC50 ± RSD% HIV-1 PR under 0.6%, No if at or over.

- COMPOUND: "O=C(O)/C=C/c1ccc(O)c(O)c1 [Compound 7, Caffeic acid]"
  CLASS LABEL: "Yes"

Hello, is IC50 ± RSD% HIV-1 PR of the following compound strictly smaller than 0.6%? COc1cc(O)cc2c1C(=O)C[C@@H](c1ccccc1)O2 [Compound 13, Alpinetin]
No

Hello, is IC50 ± RSD% HIV-1 PR of the following compound strictly smaller than 0.6%? C[C@@H]1O[C@@H](O[C@H]2C(=O)c3c(O)cc(O)cc3O[C@@H]2c2ccc(O)c(O)c2)[C@H](O)[C@H](O)[C@H]1O [Compound 9, Astilbin]
Yes

Hello, is IC50 ± RSD% HIV-1 PR of the following compound strictly smaller than 0.6%? C[C@@H]1CC[C@H]2[C@@H](C)C(=O)O[C@@H]3O[C@@]4(C)CC[C@@H]1[C@]32OO4 [Compound 14, Artemisinin]
No

Hello, is IC50 ± RSD% HIV-1 PR of the following compound strictly smaller than 0.6%? O=C(C=Cc1ccc(O)c(O)c1)OC1CC(O)(C(=O)O)CC(O)C1OC(=O)C=Cc1ccc(O)c(O)c1 (centres unmarked) [Compound 11, 3,4-Dicaffeoylquinic acid]
Yes
